System: R275C/Slo1WT/beta2
experiment.description: modulators of BK channel variants, profiling panel, selectivity assay, cell-based, U2OS BacMam, thallium flux, beta subunits (AID 1259406);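 further: initial slope of Thallos dye fluorescence rise after thallium is added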
test.parameters: at 30 µM
Rule: log fold change Tl+ flux of -0.01 or more gives true; anything lower gives false.

[
  {
    "structure.smiles.string": "O=C(O)Cc1ccc([N+](=O)[O-])cc1",
    "class": "true"
  },
  {
    "structure.smiles.string": "O=C(c1ncoc1-c1ccccc1)N(Cc1ccccn1)Cc1ccccn1",
    "class": "true"
  },
  {
    "structure.smiles.string": "O=[N+]([O-])c1ccc(N2CCSCC2)cc1O",
    "class": "true"
  }
]

Could you verify whether the entry O=C1C(c2c(O)[nH]c3ccccc23)=Nc2ccccc21 shows log fold change Tl+ flux of no less than -0.01?
true

Likewise for N=c1c(C(N)=O)cc2c(=O)n3ccccc3nc2n1Cc1ccco1 ?
true

Would you mind doing Cc1ccc(C(=O)CC(=CC(=C(C#N)c2ccc([N+](=O)[O-])cc2)c2ccc(C)cc2)c2ccccc2)cc1 as well?
false

Quick one: CC(C)(C)c1cc2nc(C(F)(F)F)cc(NN=Cc3ccccc3)n2n1
false

Another compound: CCc1nc2ccccc2nc1N1CCN(S(=O)(=O)c2ccc(Cl)cc2)CC1
false

Request: Cc1ncc(CSc2nc(C(C)(C)C)cs2)c(CO)c1O
true

How about this compound: COC(=O)c1cc(S(=O)(=O)N(Cc2ccc(OC)cc2)Cc2cccn2C)oc1C
false

Note, next up: CC(=O)Oc1ccc(OC(C)=O)c2cc3c(OC(C)=O)ccc(OC(C)=O)c3cc12
true

src = PubChem BioAssay
